Molecular target: LK35.2-hPD-L1 cells / PE-labeled PD-1-Ig (Homo sapiens)
Construct: expressed in transfected cells; host or cells: LK35.2 mouse B cell line
Assay: LK35.2-hPD-L1 cell binding high-content screening assay
Type: cell-based
Conditions: cell binding assay, cell line not given; cluster symbol; read-out: CBA IC50 cluster
pIC50: −log10 of the molar value. Positions of bridges follow the written chain, without caps; N, C: chain ends. Non-standard residues stand in square brackets, D forms with d. Residues, ends and D or L forms follow the SMILES beside them. ξ: configuration not given here. Bta = N[C@@H](Cc1csc2ccccc12)C(=O)O; NMeNle = CCCC[C@H](NC)C(=O)O; NMeM = CN[C@@H](CCSC)C(=O)O; NMeA = CN[C@@H](C)C(=O)O; ξC = NC(CS)C(=O)O
measure: pIC50

Query: Can you share its pIC50? I mean this compound: CCCC[C@H]1C(=O)N(C)[C@@H](CCSC)C(=O)N[C@@H](CCCNC(=N)N)C(=O)NC(C(=O)NCC(N)=O)CSCC(=O)N[C@@H](Cc2ccc(O)cc2)C(=O)N(C)[C@@H](C)C(=O)N[C@@H](CC(N)=O)C(=O)N2CCC[C@H]2C(=O)N[C@@H](Cc2cnc[nH]2)C(=O)N[C@@H](CO)C(=O)N2CCC[C@H]2C(=O)N[C@@H](Cc2c[nH]c3ccccc23)C(=O)N[C@@H](CO)C(=O)N[C@@H](Cc2csc3ccccc23)C(=O)N1C (stereo partly shown) [Example 9106] ({CH2CO}-Y[NMeA]NPHSPWS[Bta][NMeNle][NMeM]R[ξC]G-NH2; thioether N-14)
Response: 7.14 to 8.32

###

Biological target: LK35.2-hPD-L1 cells / PE-labeled PD-1-Ig (Homo sapiens, UniProt Q9NZQ7)
Construct: expressed in transfected cells; host or cells: LK35.2 mouse B cell line
Sequence (Q9NZQ7 19-290): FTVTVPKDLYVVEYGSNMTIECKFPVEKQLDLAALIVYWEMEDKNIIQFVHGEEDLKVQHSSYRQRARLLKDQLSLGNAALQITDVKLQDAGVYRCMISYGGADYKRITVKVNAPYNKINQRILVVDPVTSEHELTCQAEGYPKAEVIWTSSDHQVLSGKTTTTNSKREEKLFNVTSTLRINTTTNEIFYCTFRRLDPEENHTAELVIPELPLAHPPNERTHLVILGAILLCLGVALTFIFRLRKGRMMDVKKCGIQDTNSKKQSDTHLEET
Assay: LK35.2-hPD-L1 cell binding high-content screening assay
Format: cell-based
Details: cell binding assay, cell line not given; cluster symbol; read-out: CBA IC50 cluster
pIC50: −log10 of the molar value. Positions of bridges follow the written chain, without caps; N, C: chain ends. Non-standard residues stand in square brackets, D forms with d. Residues, ends and D or L forms follow the SMILES beside them. NMeNle = CCCC[C@H](NC)C(=O)O; NMeA = CN[C@@H](C)C(=O)O
measure: pIC50

Query: Find pIC50 (LK35.2-hPD-L1 cells / PE-labeled PD-1-Ig (Homo sapiens, UniProt Q9NZQ7)) for the entry CCCC[C@H]1C(=O)N(C)[C@@H](CCCC)C(=O)N[C@@H](CCCNC(=N)N)C(=O)N[C@H](C(=O)NCC(=O)NCC(N)=O)CSCC(=O)N[C@@H](Cc2ccc(O)cc2)C(=O)N(C)[C@@H](C)C(=O)N[C@@H](CC(N)=O)C(=O)N2CCC[C@H]2C(=O)N[C@@H](Cc2cnc[nH]2)C(=O)N[C@@H](CC(C)C)C(=O)N2CCC[C@H]2C(=O)N[C@@H](Cc2c[nH]c3ccccc23)C(=O)N[C@@H](CO)C(=O)N[C@@H](Cc2c[nH]c3ccccc23)C(=O)N1C [Example 6018] ({CH2CO}-Y[NMeA]NPHLPWSW[NMeNle][NMeNle]RCGG-NH2; thioether N-14)
Response: 8.33 to 9.80

###

Biological target: Human PD-L1/PD-1 (Homo sapiens, UniProt Q9NZQ7)
Construct: made in house; host or cells: HEK293T
Sequence (Q9NZQ7 with tags, fused parts or gaps): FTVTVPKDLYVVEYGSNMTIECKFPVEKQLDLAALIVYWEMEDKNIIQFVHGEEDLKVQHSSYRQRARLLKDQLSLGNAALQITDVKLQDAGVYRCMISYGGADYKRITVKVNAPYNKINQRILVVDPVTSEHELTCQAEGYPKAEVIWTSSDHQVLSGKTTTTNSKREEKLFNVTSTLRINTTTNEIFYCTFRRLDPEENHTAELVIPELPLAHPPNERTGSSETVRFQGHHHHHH
Test: HTRF PD-1-Ig/PD-L1-His binding assay (human PD-L1)
Details: cluster symbol; read-out: HTRF IC50 cluster
Excerpt: The ability of the macrocyclic peptides of the present disclosure to bind to PD-L1 was investigated using a PD-1/PD-L1 Homogenous Time-Resolved Fluorescence (HTRF) binding assay. Homogenous Time-Resolved Fluorescence (HTRF) Assays of Binding of Soluble PD-1 to Soluble PD-L1. […]
Starred links: 1 amine or outer side, 2 acyl side, 3 side chain; linkers in the order of their positions; H or OH if unused. Positions of bridges follow the written chain, without caps; N, C: chain ends. Non-standard residues stand in square brackets, D forms with d. Residues, ends and D or L forms follow the SMILES beside them. X12 = O=C([C@H](Cc1cc(Cl)c(F)c(Cl)c1)N[*:1])[*:2]; NMeF = CN[C@@H](Cc1ccccc1)C(=O)O; NMeNle = CCCC[C@H](NC)C(=O)O; Sar = CNCC(=O)O
measure: IC50

Query: Can you share its IC50? I mean this compound: CCCC[C@H]1C(=O)N(C)CC(=O)N[C@@H](CC(=O)O)C(=O)N[C@@H](C(C)C)C(=O)N(C)[C@@H](Cc2ccccc2)C(=O)N[C@@H](Cc2ccc(O)cc2)C(=O)N(C)CC(=O)N[C@@H](Cc2c[nH]c3ccccc23)C(=O)N[C@@H](Cc2ccc(O)cc2)C(=O)N[C@@H](CC(C)C)C(=O)N[C@H](C(=O)NCC(N)=O)CSCC(=O)N[C@@H](Cc2cc(Cl)c(F)c(Cl)c2)C(=O)N(C)[C@@H](Cc2ccccc2)C(=O)N1C [Example 3185] ({CH2CO}-[X12][NMeF][NMeNle][Sar]DV[NMeF]Y[Sar]WYLCG-NH2; thioether N-13)
Response: 6.76 to 30.3 nM

###

Target: LK35.2-hPD-L1 cells / PE-labeled PD-1-Ig (Homo sapiens, UniProt Q9NZQ7)
Construct: expressed in transfected cells; host or cells: LK35.2 mouse B cell line
Experiment: LK35.2-hPD-L1 cell binding high-content screening assay
Assay type: cell-based
Settings: cell binding assay, cell line not given; cluster symbol; read-out: CBA IC50 cluster
Positions of bridges follow the written chain, without caps; N, C: chain ends. Non-standard residues stand in square brackets, D forms with d. Residues, ends and D or L forms follow the SMILES beside them. Hyp = O=C(O)[C@@H]1C[C@@H](O)CN1; NMeNle = CCCC[C@H](NC)C(=O)O; NMeA = CN[C@@H](C)C(=O)O; Dab = NCC[C@H](N)C(=O)O; Dap = NC[C@H](N)C(=O)O; Sar = CNCC(=O)O
measure: IC50

Query: Can you share its IC50? I mean this molecule: CCCC[C@H]1C(=O)N(C)[C@@H](CCCC)C(=O)N[C@@H](CC(C)C)C(=O)N[C@H](C(=O)NCC(N)=O)CSCC(=O)N[C@@H](Cc2ccc(O)cc2)C(=O)N(C)[C@@H](C)C(=O)N[C@@H](CC(N)=O)C(=O)N2CCC[C@H]2C(=O)N[C@@H](CN)C(=O)N[C@@H](CC(C)C)C(=O)N2C[C@H](O)C[C@H]2C(=O)N[C@@H](Cc2c[nH]c3ccccc23)C(=O)N[C@@H](CO)C(=O)N[C@@H](Cc2c[nH]c3ccccc23)C(=O)N1C [Example 5070] ({CH2CO}-Y[NMeA]NP[Dap]L[Hyp]WSW[NMeNle][NMeNle]LCG-NH2; thioether N-14)
Response: 0.158 to 4.71 nM

Query: Can you share its IC50? I mean this molecule: CCCC[C@H]1C(=O)N(C)[C@@H](CCCC)C(=O)N[C@@H](CCCNC(=N)N)C(=O)N[C@H](C(=O)NCC(N)=O)CSCC(=O)N[C@@H](Cc2ccccc2)C(=O)N(C)[C@@H](C)C(=O)N[C@@H](CC(N)=O)C(=O)N2CCC[C@H]2C(=O)N[C@@H](Cc2cnc[nH]2)C(=O)N[C@@H](Cc2ccc(O)cc2)C(=O)N(C)CC(=O)N[C@@H](Cc2c[nH]c3ccccc23)C(=O)N[C@@H](CO)C(=O)N[C@@H](Cc2c[nH]c3ccccc23)C(=O)N1C [Example 6014] ({CH2CO}-F[NMeA]NPHY[Sar]WSW[NMeNle][NMeNle]RCG-NH2; thioether N-14)
Response: 4.78 to 72.9 nM

Query: Can you share its IC50? I mean this molecule: CCCC[C@H]1C(=O)N(C)[C@@H](CCCC)C(=O)N[C@@H](CCCNC(=N)N)C(=O)N[C@H](C(=O)NCC(N)=O)CSCC(=O)N[C@@H](Cc2ccccc2)C(=O)N(C)[C@@H](C)C(=O)N[C@@H](CC(N)=O)C(=O)N2CCC[C@H]2C(=O)N[C@@H](Cc2cnc[nH]2)C(=O)N[C@@H](Cc2cnc[nH]2)C(=O)N(C)CC(=O)N[C@@H](Cc2c[nH]c3ccccc23)C(=O)N[C@@H](CO)C(=O)N[C@@H](Cc2c[nH]c3ccccc23)C(=O)N1C [Example 6008] ({CH2CO}-F[NMeA]NPHH[Sar]WSW[NMeNle][NMeNle]RCG-NH2; thioether N-14)
Response: > 74.3 nM

Query: Can you share its IC50? I mean this molecule: CCCC[C@H]1C(=O)N(C)[C@@H](CCCC)C(=O)N[C@@H](C)C(=O)N[C@H](C(=O)NCC(N)=O)CSCC(=O)N[C@@H](Cc2ccc(O)cc2)C(=O)N(C)[C@@H](C)C(=O)N[C@@H](CCN)C(=O)N2CCC[C@H]2C(=O)N[C@@H](Cc2c[nH]cn2)C(=O)N[C@@H](CCC(=O)O)C(=O)N2C[C@H](O)C[C@H]2C(=O)N[C@@H](Cc2c[nH]c3ccccc23)C(=O)N[C@@H](CO)C(=O)N[C@@H](Cc2c[nH]c3ccccc23)C(=O)N1C [Example 5087] ({CH2CO}-Y[NMeA][Dab]PHE[Hyp]WSW[NMeNle][NMeNle]ACG-NH2; thioether N-14)
Response: 4.78 to 72.9 nM
